These entries and their values trace back to patent US20260274975A1.

system-name: Anti-Müllerian hormone Receptor 2 (AMH-R2), protein target applied to the peptide microarray (UniProt Q16671)
assay-text: peptide microarray; protein target detected by anti-GST and Alexa Fluor 647 antibody, scanned signal
Non-standard residues stand in square brackets, D forms with d. No end group written: not given here.
parameter: Rep 2

>>> df
                                     binder  reported_result
0  [dK]GSNA[dR][dK]N[dR][dR]D[dA]SGV[dA][dL] [AMH receptor binding peptide SEQ ID NO: 20]            43500
1  NG[dR]SQAHN[dL][dR][dK][dA]GV[dA][dL]S [AMH receptor binding peptide SEQ ID NO: 15]            60000
2  DG[dL]GSV[dL]A[dR][dK]N[dR][dR]D[dA]V[dL] [AMH receptor binding peptide SEQ ID NO: 5]            65500
3  G[dL]Y[dW]SAYNP[dW][dR]HV[dA][dL][dA]S [AMH receptor binding peptide SEQ ID NO: 18]            57500
4  Y[dW]G[dW]SHA[dK][dA]NQFPN[dR][dL][dA] [AMH receptor binding peptide SEQ ID NO: 3]            65500
5  GG[dR]SVSAN[dL]Q[dR]E[dR][dK]V[dA]G [AMH receptor binding peptide SEQ ID NO: 19]            58100
